Every entry's value here was drawn from ChEMBL document CHEMBL4819092.

Study Target: Sigma intracellular receptor 2 (Homo sapiens)
Sequence (Q5BJF2 whole entry): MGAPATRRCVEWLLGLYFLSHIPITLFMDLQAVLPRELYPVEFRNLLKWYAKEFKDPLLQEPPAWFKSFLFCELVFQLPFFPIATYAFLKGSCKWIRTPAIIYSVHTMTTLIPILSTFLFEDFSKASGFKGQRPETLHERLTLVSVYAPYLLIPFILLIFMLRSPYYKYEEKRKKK
Assay Name: Displacement of [3H]DTG from sigma2 receptor(unknown origin)
Note to self: Ki under 400 nM means Condition met, ties and anything higher get Condition not met.

Look over these answered cases.
COc1cc2c(cc1O)CN(CCCCNC(=O)c1ccc(C#N)cc1)CC2 Condition met
COc1cc2c(cc1O)CN(Cc1ccccc1CNC(=O)c1ccccc1Br)CC2 Condition met
COc1cc2c(cc1O)CN(Cc1ccccc1CNC(=O)c1ccccc1Cl)CC2 Condition not met
COc1cc2c(cc1O)CN(Cc1ccccc1CNC(=O)c1ccccc1OC)CC2 Condition met

Lab log: compare recorded Ki with 400 nM; is it strictly lower for COc1cc2c(cc1O)CN(Cc1ccccc1CNC(=O)c1cccc(Cl)c1Cl)CC2 ?
Condition not met
